# TARGET: CDK9 (Homo sapiens, UniProt P50750)
# Construct: endogenous in cells; host or cells: MDA-MB-231
# Sequence (P50750 whole entry): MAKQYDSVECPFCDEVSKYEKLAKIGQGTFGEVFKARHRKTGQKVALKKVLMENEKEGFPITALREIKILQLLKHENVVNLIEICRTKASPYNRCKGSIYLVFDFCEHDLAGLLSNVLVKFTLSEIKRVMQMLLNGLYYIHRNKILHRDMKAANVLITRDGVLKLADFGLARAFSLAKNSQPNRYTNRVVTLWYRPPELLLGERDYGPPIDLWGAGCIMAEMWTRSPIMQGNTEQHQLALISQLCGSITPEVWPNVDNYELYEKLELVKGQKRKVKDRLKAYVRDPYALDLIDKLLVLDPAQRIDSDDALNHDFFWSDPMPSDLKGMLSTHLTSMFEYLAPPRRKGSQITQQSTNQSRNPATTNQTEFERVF
# PROTOCOL NOTES: CDK protein degradation activity (Western blotting), CDK9
# Format: cell-based
# APPLIED CONDITIONS: MDA-MB-231 cells, 10 μM, 16 hours, Western blot
ENDPOINT: Enzyme degradation CDK9 (% remaining) @ 10 μM (%)

[
  {
    "SMILES DATA": "Cc1cccc(C(=O)N[C@H]2C[C@@H](n3cnc4c(NC5CCN(CCOC6CCN(c7ccc8c(c7)C(=O)N([C@H]7CCC(=O)NC7=O)C8=O)CC6)CC5)ncnc43)C2)n1",
    "EXPERIMENTAL RESULT": 0
  },
  {
    "SMILES DATA": "O=C1CC[C@H](N2C(=O)c3cccc(N4CC(N5CCC6(CC5)CC(N5CCN(c7ccc(Nc8ncnc9c8ncn9[C@H]8C[C@@H](NC(=O)Cc9ccccc9)C8)cc7)CC5)C6)C4)c3C2=O)C(=O)N1",
    "EXPERIMENTAL RESULT": 30
  }
]

* * *

# TARGET: CDK9 (Homo sapiens)
# Construct: endogenous in cells; host or cells: MDA-MB-231
# PROTOCOL NOTES: CDK protein degradation activity (Western blotting), CDK9
# Format: cell-based
# APPLIED CONDITIONS: MDA-MB-231 cells, 1 μM, 16 hours, Western blot
ENDPOINT: Enzyme degradation CDK9 (% remaining) @ 1 μM (%)

[
  {
    "MOLECULE": "Cc1cccc(C(=O)N[C@H]2C[C@@H](n3cnc4c(NCc5ccc(OCCCN6CCN(C(=O)COc7cccc8c7C(=O)N([C@H]7CCC(=O)NC7=O)C8=O)CC6)cc5)ncnc43)C2)n1",
    "TARGET": "CDK9 (Homo sapiens)",
    "VALUE UNIT": "%",
    "EXPERIMENTAL RESULT": 10
  },
  {
    "MOLECULE": "O=C1CC[C@@H](c2ccc(OCC(=O)N3CCC(CCCN4CCN(c5ccc(Nc6ncnc7c6ncn7[C@H]6C[C@@H](NC(=O)Cc7ccccc7)C6)cc5)CC4)CC3)cc2)C(=O)N1",
    "TARGET": "CDK9 (Homo sapiens)",
    "VALUE UNIT": "%",
    "EXPERIMENTAL RESULT": 0
  },
  {
    "MOLECULE": "Cc1cccc(C(=O)N[C@H]2C[C@@H](n3cnc4c(NCc5cccc(N6CCN(CC7CCN(C(=O)COc8cccc9c8C(=O)N(C8CCC(=O)NC8=O)C9=O)CC7)CC6)c5)ncnc43)C2)n1 (some centres unmarked)",
    "TARGET": "CDK9 (Homo sapiens)",
    "VALUE UNIT": "%",
    "EXPERIMENTAL RESULT": 10
  }
]

* * *

# TARGET: CDK2 (Homo sapiens)
# Construct: endogenous in cells; host or cells: MDA-MB-231
# PROTOCOL NOTES: CDK protein degradation activity (Western blotting), CDK2
# Type: cell-based
# APPLIED CONDITIONS: MDA-MB-231 cells, 0.1 μM, 16 hours, Western blot
ENDPOINT: Enzyme degradation CDK2 (% remaining) @ 0.1 μM

[
  {
    "MOLECULE": "O=C1CCC(N2C(=O)c3ccc(N4CCC(C(=O)N5CCC(CN6CCN(c7ccc(Nc8ncnc9c8ncn9[C@H]8C[C@@H](NC(=O)c9cccc(C(F)(F)F)n9)C8)cc7)CC6)CC5)CC4)cc3C2=O)C(=O)N1 (some centres unmarked) [Compound 470]",
    "EXPERIMENTAL RESULT": "30/30/30%"
  },
  {
    "MOLECULE": "N#Cc1cccc(C(=O)N[C@H]2C[C@@H](n3cnc4c(Nc5ccc(N6CCN(CC7CCN(C(=O)CNc8cccc9c8C(=O)N(C8CCC(=O)NC8=O)C9=O)CC7)CC6)cc5)ncnc43)C2)n1 (some centres unmarked) [Compound 420]",
    "EXPERIMENTAL RESULT": "10/10/10%"
  },
  {
    "MOLECULE": "O=C1CC[C@H](N2C(=O)c3ccc(N4CC(C(=O)N5CCC(CN6CCN(c7ccc(Nc8ncnc9c8ncn9[C@H]8C[C@@H](NC(=O)c9c(Cl)cccc9Cl)C8)cc7)CC6)CC5)C4)cc3C2=O)C(=O)N1 [Compound 394]",
    "EXPERIMENTAL RESULT": "20/20/20%"
  },
  {
    "MOLECULE": "O=C1CC[C@H](n2nnc3ccc(N4CCC(CN5CCC(CCNc6ncnc7c6ncn7C6CC(NC(=O)c7c(Cl)cccc7Cl)C6)CC5)CC4)cc3c2=O)C(=O)N1 (some centres unmarked) [Compound 398]",
    "EXPERIMENTAL RESULT": "20%"
  },
  {
    "MOLECULE": "O=C1CC[C@@H](c2ccc(OCC(=O)N3CCC4(CC3)CC(N3CCC(c5ccc(Nc6ncnc7c6ncn7C6CC(NC(=O)Cc7ccccc7)C6)cc5)CC3)C4)cc2)C(=O)N1 (some centres unmarked) [Compound 284]",
    "EXPERIMENTAL RESULT": "40%"
  }
]
